Tested on: U2OS
MEASUREMENT_NOTES: Multiplex assay against U2OS
Assay type: toxicity, cell-based
CONDITION_PARAMETERS: human, 24 h, 1 µM, compound concentration 1 uM, replicate 2
ATTRIBUTE_MEASURED: Population Apoptotic (%)
Answers are plain numbers, in %.

COMPOUND	TARGET_OR_SYSTEM	Population Apoptotic (%)
Cl.NC[C@@H]1O[C@H](C23CC4CC(CC(C4)C2)C3)Cc2c1ccc(O)c2O	U2OS	42
CC(C)c1cc(Nc2nc(N3CCC[C@H](N)C3)ncc2C(N)=O)cc(C(C)C)n1	U2OS	26
CC(/C=C1\SC(=S)N(CCCC(=O)Nc2ccc(C(=O)O)c(O)c2)C1=O)=C\c1ccccc1	U2OS	54
Oc1cccc(-c2nc(N3CCOCC3)c3oc4ncccc4c3n2)c1	U2OS	75
N#CCNC(=O)c1ccc(-c2ccnc(Nc3ccc(N4CCOCC4)cc3)n2)cc1	U2OS	66
Cl.Cn1c2c(c3ccc(Cl)c(Cl)c31)C(C#N)C1(CCNCC1)NC2=O (centres undefined)	U2OS	75
Cc1ccc(S(=O)(=O)NC2c3ccccc3Oc3ccccc32)cc1	U2OS	25
CCOc1ccn(-c2ccc(F)cc2)c(=O)c1C(=O)Nc1ccc(Oc2ccnc(N)c2Cl)c(F)c1	U2OS	36

Give Population Apoptotic (%) for "C=CC(=O)Nc1cc(-n2c(=O)ccc3cnc4ccc(-c5ccc(NS(C)(=O)=O)cc5)cc4c32)ccc1C"
55
